Molecular target: SARS-CoV nsp14 (Severe acute respiratory syndrome coronavirus)
Assay: biochemical
Conditions: read-out: % of inhibition at 50 μM, SARs-Cov nsp 14
Reported inhibition at 50 µM values for a set of compounds
property label: inhibition at 50 µM (%)

>>> value_observed("CCOC(=O)c1c(N)sc2c1CCC1=C2C(c2ccc(OC)cc2)C(C#N)=C(N)O1 (stereo not drawn)")
58.3
>>> value_observed("COc1ccc(C2C(C#N)=C(N)OC3=C2c2sc(N)c(C#N)c2CC3)cc1 (stereo not drawn)")
88.2
>>> value_observed("N#CC1=C(N)OC2=C(C=C(c3c(N)n[nH]c3N)CC2)C1c1ccccc1Cl (stereo not drawn)")
96.3
>>> value_observed("CC1=CSC(=C2C(=O)CCC3=C2C(c2ccccc2Cl)C(C#N)=C(N)O3)N1c1ccccc1 (stereo not drawn)")
89.2
>>> value_observed("CCOC(=O)CSC(Nc1ccccc1)=C1C(=O)CCC2=C1C(c1ccccc1Cl)C(C#N)=C(N)O2 (stereo not drawn)")
89.2
>>> value_observed("O=C1CCc2c(sc(=S)n2-c2ccccc2)C1")
56.4

----------
Molecular target: vaccinia virus capping enzyme (D1-D12) (Vaccinia virus)
Assay: biochemical
Conditions: read-out: % of inhibition at 50 μM, Vaccinia virus D1-D12
Reported inhibition at 50 µM values for a set of compounds
property label: inhibition at 50 µM (%)

>>> value_observed("N#CC1=C(N)OC2=C(c3sc(=S)n(-c4ccccc4)c3CC2)C1c1ccccc1 (centres unmarked) [Compound 23a]")
45.8
>>> value_observed("N#CC1=C(N)OC2=C(C=C(c3c(N)nn(-c4ccccc4)c3N)CC2)C1c1ccccc1Cl (centres unmarked)")
96.1
>>> value_observed("N#CC1=C(N)OC2=C(CC(=O)CC2)C1c1ccccc1Cl (centres unmarked)")
98.3
>>> value_observed("N#CC1=C(N)OC2=C(c3sc(=S)n(-c4ccccc4)c3CC2)C1c1ccc(Cl)cc1 (centres unmarked) [Compound 23b]")
96.3
>>> value_observed("CCOC(=O)C1=C(N)OC2=C(c3sc(=S)n(-c4ccccc4)c3CC2)C1c1ccccc1 (centres unmarked) [Compound 23c]")
70.4
>>> value_observed("CCOC(=O)CSC(Nc1ccccc1)=C1C(=O)CCC2=C1C(c1ccccc1Cl)C(C#N)=C(N)O2 (centres unmarked)")
84.3
>>> value_observed("CCOC1C(C#N)=C(N)OC2=C1c1sc(=S)n(-c3ccccc3)c1CC2 (centres unmarked) [Compound 20a]")
53.5
>>> value_observed("O=C1CCc2c(sc(=S)n2-c2ccccc2)C1")
63.7

----------
Biological target: SARS-CoV nsp14 (Severe acute respiratory syndrome coronavirus)
Assay: biochemical
Conditions: read-out: % of inhibition at 50 μM, SARs-Cov nsp 14
Reported inhibition at 50 µM values for a set of molecules
property label: inhibition at 50 µM (%)

>>> value_observed("Nc1ncnc2c1ncn2[C@@H]1O[C@H](C[C@@H](N)CC[C@H](N)C(=O)O)[C@@H](O)[C@H]1O [Sinefungin, reference compound]")
98.4
>>> value_observed("N#CC1=C(N)OC2=C(CC(=O)CC2)C1c1ccccc1Cl (centres unmarked) [Compound 4b]")
87.5
>>> value_observed("N#Cc1c(N)sc2c1CCc1c-2sc(=S)n1-c1ccccc1 [Compound 21a]")
49.2
>>> value_observed("N#CC1=C(N)OC2=C(c3sc(=S)n(-c4ccccc4)c3CC2)C1c1ccc(Cl)cc1 (centres unmarked) [Compound 23b]")
94.5
>>> value_observed("N#CC1=C(N)OC2=C(C=C(c3c(N)nn(-c4ccccc4)c3N)CC2)C1c1ccccc1Cl (centres unmarked) [Compound 9b]")
93.3
>>> value_observed("CCOC1C(C#N)=C(O)OC2=C1c1sc(=S)n(-c3ccccc3)c1CC2 (centres unmarked) [Compound 20b]")
36.1
>>> value_observed("CCOC1C(C#N)=C(N)OC2=C1c1sc(=S)n(-c3ccccc3)c1CC2 (centres unmarked) [Compound 20a]")
49.2
>>> value_observed("CCOC(=O)c1c(N)sc2c1CCc1c-2sc(=S)n1-c1ccccc1 [Compound 21b]")
87.2

----------
human RNA N7-MTase (hRNMT) (Homo sapiens): reported IC50 for various compounds.
Sequence (O43148 whole entry): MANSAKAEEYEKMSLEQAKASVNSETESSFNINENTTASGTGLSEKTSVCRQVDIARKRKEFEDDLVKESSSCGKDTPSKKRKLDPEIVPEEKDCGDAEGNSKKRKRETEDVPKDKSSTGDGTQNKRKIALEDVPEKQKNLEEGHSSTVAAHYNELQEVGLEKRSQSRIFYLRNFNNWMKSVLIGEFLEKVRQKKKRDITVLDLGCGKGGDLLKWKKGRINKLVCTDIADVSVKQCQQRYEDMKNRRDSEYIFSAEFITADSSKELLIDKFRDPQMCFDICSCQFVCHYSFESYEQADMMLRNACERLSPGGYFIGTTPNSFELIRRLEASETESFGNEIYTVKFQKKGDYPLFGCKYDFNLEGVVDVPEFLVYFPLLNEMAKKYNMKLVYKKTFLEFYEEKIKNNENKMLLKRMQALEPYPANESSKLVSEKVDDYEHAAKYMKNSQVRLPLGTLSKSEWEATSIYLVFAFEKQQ
property label: IC50

>>> value_observed("N#CC1=C(N)OC2=C(c3sc(=S)n(-c4ccccc4)c3CC2)C1c1ccc(Cl)cc1 (stereo not drawn) [Compound 23b]")
"< 50 nM"
>>> value_observed("CCOC(=O)C1=C(N)OC2=C(c3sc(=S)n(-c4ccccc4)c3CC2)C1c1ccc(Cl)cc1 (stereo not drawn) [Compound 23d]")
"< 50 nM"
>>> value_observed("COc1ccc(C2C(C#N)=C(N)OC3=C2c2sc(N)c(C#N)c2CC3)cc1 (stereo not drawn)")
"< 50 nM"

----------
Reported inhibition at 50 µM values for a set of compounds
Molecular target: vaccinia virus capping enzyme (D1-D12) (Vaccinia virus, UniProt P04298)
Assay: biochemical
Conditions: read-out: % of inhibition at 50 μM, Vaccinia virus D1-D12
property label: inhibition at 50 µM (%)

>>> value_observed("COc1ccc(C2C(C#N)=C(N)OC3=C2c2sc(N)c(C#N)c2CC3)cc1 (stereo not shown)")
92.2
>>> value_observed("CCOC(=O)c1c(N)sc2c1CCc1c-2sc(=S)n1-c1ccccc1 [Compound 21b]")
90.4
>>> value_observed("N#CC1=C(N)OC2=C(CC(=O)CC2)C1c1ccccc1 (stereo not shown)")
89.3
>>> value_observed("CC1=CSC(=C2C(=O)CCC3=C2C(c2ccccc2Cl)C(C#N)=C(N)O3)N1c1ccccc1 (stereo not shown)")
90.4

----------
Reported IC50 values for a set of compounds
Molecular target: human RNA N7-MTase (hRNMT) (Homo sapiens)
property label: IC50

>>> value_observed("N#CC1=C(N)OC2=C(C=C(c3c(N)n[nH]c3N)CC2)C1c1ccccc1Cl (stereo not drawn)")
"< 0.05 µM"
>>> value_observed("Nc1ncnc2c1ncn2[C@@H]1O[C@H](C[C@@H](N)CC[C@H](N)C(=O)O)[C@@H](O)[C@H]1O [Sinefungin, reference compound]")
"< 0.05 µM"
>>> value_observed("N#CC1=C(N)OC2=C(CC(=O)CC2)C1c1ccccc1 (stereo not drawn)")
"< 0.05 µM"

Hello, the source for this data is paper PMC8370666, in case you need it.
